system: KM12; assay: NCI tumour cell line growth inhibition, 48 h
The source made the active and inactive calls. Rule as the data show it: active = GI50 up to about 1.1 µM and inactive = higher.
MEASURED PROPERTY: GI50

COMPOUND	MEASURED PROPERTY	RESULT
O=C1OC(=O)C2C1C(c1ccccc1[N+](=O)[O-])C=C(c1ccco1)N2c1ccncc1 (centres undefined)	GI50	1.98 µM (inactive)
O=S(=O)(O)c1ccc(/N=N/c2ccc(/N=N/c3c(O)ccc4ccccc34)c(S(=O)(=O)O)c2)cc1	GI50	> 100 µM (inactive)
C/C(=N\NC(N)=S)C(CN1CCCCC1)C(C1=C(O)c2ccccc2OC1)c1ccccc1 (centres undefined)	GI50	> 100 µM (inactive)
O=C(COc1ccccc1)N(C(=O)N1CCN(c2ccccc2)CC1)S(=O)(=O)c1ccccc1	GI50	> 100 µM (inactive)

###

tested on: LOX IMVI; assay: NCI tumour cell line growth inhibition, 48 h
Active and inactive are the calls of the source. Cut-off read from the data, not from the text of the source: active = GI50 up to about 1.1 µM and inactive = higher.
Recorded GI50 for the following molecules
MEASURED PROPERTY: GI50

MOLECULE	TESTED TARGET	MEASURED PROPERTY	RESULT
C/C(=N\N=C(\N)SB(F)F)c1ccc2ccccc2c1	LOX IMVI	GI50	56.4 µM (inactive)
NC(=O)C(c1ccccc1)N1OC2C(=O)N(c3ccccc3)C(=O)C2C1c1c2ccccc2c(Cl)c2ccccc12 (stereo not given)	LOX IMVI	GI50	> 100 µM (inactive)
CC(=O)N/C(=C\c1ccc(/C=C(\NC(C)=O)C2=NC3C(=O)c4ccccc4C(=O)C3N2)cc1)C1=NC2C(=O)c3ccccc3C(=O)C2N1 (stereo not given)	LOX IMVI	GI50	6.92 µM (inactive)
CC[C@H](CC[C@@H](C)[C@H]1CC[C@H]2[C@@H]3CC=C4C[C@@H](O)CC[C@]4(C)[C@H]3CC[C@]12C)C(C)C	LOX IMVI	GI50	> 100 µM (inactive)
O=C(COc1ccccc1)N(C(=O)N1CCN(c2ccccc2)CC1)S(=O)(=O)c1ccccc1	LOX IMVI	GI50	77.4 µM (inactive)

###

tested on: SF-268; assay: NCI tumour cell line growth inhibition, 48 h
Activity calls are given as the source filed them. Rule as the data show it: active = GI50 up to about 1.1 µM and inactive = higher.
Labels: t for active, f for inactive

MOLECULE	QUALITATIVE LABEL
N#CCc1nc(-c2cc3ccc(O)cc3oc2=O)cs1	f
O=C1/C(=C/c2ccc3c(c2)OCO3)Sc2scc(-c3ccc(O)c(O)c3)[n+]21	f
COc1ccc2nc3cc(Cl)ccc3c(NCCCN(CCCl)CCCl)c2c1	t
CCOC(=O)C12CC(C)=C(C)CC1CCCc1ccccc12 (configuration not stated)	f
COc1ccc(OC)c(CNc2ccc(O)c(C(=O)NCCc3ccc(F)cc3)c2)c1	f
O=C(OC1OC2COC(=O)c3cc(O)c(O)c(O)c3-c3c(cc(O)c(O)c3O)C(=O)OC3C2OC(=O)[C@@]24CC(=O)[C@@](O)(OC25C(=O)O[C@H]2[C@@H](O)CO[C@@]25O)C2(O)Oc5c(O)c(O)cc(c5C24)C(=O)OC13)c1cc(O)c(O)c(O)c1 (some centres not stated)	f
O=C1c2ccccc2C(=O)C1(Cl)C1(S(=O)(=O)O)c2ccccc2-c2ccccc21	f
O=C(COc1ccccc1)N(C(=O)N1CCN(c2ccccc2)CC1)S(=O)(=O)c1ccccc1	f
Cc1ccc(Nc2cc(=O)[nH]c(=S)[nH]2)cc1	f
COc1cc([C@H]2c3cc4c(cc3[C@H](NCc3ccc(F)cc3)C3COC(=O)[C@H]32)OCO4)cc(OC)c1O (some centres not stated)	f
CC(=O)OC[C@@H](OC(C)=O)[C@@H](OC(C)=O)[C@H]1OC[C@@H]2C[C@H]([C@H]1OC(C)=O)N(Cc1ccccc1)O2	f
C(/C=N/N=C1NCCCN1)=N\N=C1NCCCN1	f

Each recorded value in this set is attributed to ChEMBL document CHEMBL1201862.
